Data credit: patent US20260028365A1

# measurement-target: JH2 domain of human Tyk2 (Homo sapiens (Human), UniProt P29597)
# Sequence (P29597 575-876): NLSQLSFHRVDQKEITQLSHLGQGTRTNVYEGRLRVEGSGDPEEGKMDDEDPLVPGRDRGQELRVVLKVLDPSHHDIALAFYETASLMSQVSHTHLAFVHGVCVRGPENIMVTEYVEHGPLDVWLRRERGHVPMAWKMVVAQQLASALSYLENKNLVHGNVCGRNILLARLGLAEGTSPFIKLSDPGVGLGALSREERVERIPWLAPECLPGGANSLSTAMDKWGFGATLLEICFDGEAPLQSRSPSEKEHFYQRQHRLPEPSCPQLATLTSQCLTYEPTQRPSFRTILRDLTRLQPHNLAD
# method-summary: JH2 Biochemical Assay (TR-FRET probe displacement)
# Assay type: binding
# setup-conditions: JH2 domain of human Tyk2, TR-FRET probe displacement
Recorded IC50, one value per entry.

>  <compound>
COc1ccnc(Nc2cc(NC(C)=O)ncc2-c2ccn(C)n2)n1

>  <measurement-target>
JH2 domain of human Tyk2 (Homo sapiens (Human), UniProt P29597)

>  <result>
10 to 100 nM

$$$$
>  <compound>
COc1cnc(NC(C)=O)cc1Nc1cc(-c2ccncc2F)nc(C(C)(F)F)n1

>  <measurement-target>
JH2 domain of human Tyk2 (Homo sapiens (Human), UniProt P29597)

>  <result>
≤ 10 nM

$$$$
>  <compound>
CC(=O)Nc1cc(Nc2cc(C)nc(C(C)(F)F)n2)c(-c2cc(C(C)N(C)C)ccn2)cn1 (centres unmarked)

>  <measurement-target>
JH2 domain of human Tyk2 (Homo sapiens (Human), UniProt P29597)

>  <result>
≤ 10 nM

$$$$
>  <compound>
CC(=O)Nc1cc(Nc2cc(C)nc([C@]34CO[C@](CF)(C3)C4)n2)c(-c2ccn(C)n2)cn1

>  <measurement-target>
JH2 domain of human Tyk2 (Homo sapiens (Human), UniProt P29597)

>  <result>
10 to 100 nM

$$$$

Moving on to another compound below.
Inquiry: Missing value: IC50, JH2 domain of human Tyk2 (Homo sapiens (Human), UniProt P29597), entry COCc1ccc(-c2cnc(NC(C)=O)cc2Nc2ccnc(C3CCOC3)n2)nc1 (centres unmarked) . Fill in?
Reply text: ≤ 10 nM
